Biological target: Cannabinoid receptor 2 (Homo sapiens, UniProt P34972)
Sequence (P34972 whole entry): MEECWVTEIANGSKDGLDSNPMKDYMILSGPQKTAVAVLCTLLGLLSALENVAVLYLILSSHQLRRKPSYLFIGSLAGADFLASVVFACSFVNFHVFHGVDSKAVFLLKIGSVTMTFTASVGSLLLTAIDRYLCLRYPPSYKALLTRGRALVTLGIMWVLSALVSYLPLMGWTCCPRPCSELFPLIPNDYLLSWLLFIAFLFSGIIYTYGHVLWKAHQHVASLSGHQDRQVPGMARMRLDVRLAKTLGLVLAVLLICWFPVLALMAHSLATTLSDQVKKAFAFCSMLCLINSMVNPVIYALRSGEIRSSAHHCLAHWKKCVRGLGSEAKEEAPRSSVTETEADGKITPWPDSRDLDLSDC
Assay: Inhibition of [35S]GTP-gamma-S binding to human CB2 receptor expressed in CHO cells
readout-label: pIC50
Remember, pIC50 is on a log scale: it is -log10 of the molar concentration.

The following compounds have reported results that may help.
# substance-smiles, experimental-system, pIC50
rows = [
    ("CCCCCOc1c(OC)ccc2cc(C(=O)NCCc3ccc(O)cc3)c(=O)[nH]c12", "Cannabinoid receptor 2 (Homo sapiens, UniProt P34972)", 8.00),
    ("CCCCCOc1c(OC)ccc2cc(C(=O)NCCc3ccccc3)c(=O)[nH]c12", "Cannabinoid receptor 2 (Homo sapiens, UniProt P34972)", 9.20),
    ("CCCCCOc1c(OC)ccc2cc(C(=O)NCc3ccc(O)c(O)c3)c(=O)[nH]c12", "Cannabinoid receptor 2 (Homo sapiens, UniProt P34972)", 5.40),
    ("CCCCCOc1c(OC)ccc2cc(C(=O)NCc3ccccc3)c(O)nc12", "Cannabinoid receptor 2 (Homo sapiens, UniProt P34972)", 7.20),
    ("CCCCCOc1c(OC)ccc2cc(C(=O)NCCc3ccc(Cl)cc3)c(=O)[nH]c12", "Cannabinoid receptor 2 (Homo sapiens, UniProt P34972)", 8.30),
]

Q. Name the reported pIC50 value associated with the compound CCCCCOc1c(OC)ccc2cc(C(=O)Nc3ccccc3N)c(=O)[nH]c12
A. 7.90

Q. Check CCCCCOc1c(OC)ccc2cc(C(=O)NCCCc3ccccc3)c(=O)[nH]c12 too.
A. 9.10
